test: Luminescence Cell-Based Dose Confirmation HTS to Identify Inhibitors of Platelet Dense Granule Release. [Related pubchem assays: 1663 (Primary HTS), 1678 (Summary of Project)]; type: functional
Active and inactive are the calls of the source.
endpoint: EC50

Item: Clc1ccc(CNc2ccc3nnc(-c4ccccc4)n3n2)cc1 | EC50: > 112 µM (not active)

Item: COc1ccc(/C=N/N=C(\N)c2nonc2N)cc1 | EC50: 2.67 µM (active)

Item: O=C(NCCCN1CCOCC1)C1(c2ccccc2)CCCC1 | EC50: > 112 µM (not active)

Item: Cc1ccc(-c2cc(C(=O)NCc3ccco3)c3ccccc3n2)o1 | EC50: > 112 µM (not active)

Item: O=C(O)c1ccc(N/N=C/c2ccc3nccnc3c2)cc1 | EC50: 7.25 µM (active)

====

biological target: 26S proteasome non-ATPase regulatory subunit 14 (Homo sapiens, UniProt O00487); assay: inhibition of proteasome subunit RPN11 – biochemical, fluorescence polarization, uHTS hits, confirmation (AID 602368); type: functional
Sequence (O00487 whole entry): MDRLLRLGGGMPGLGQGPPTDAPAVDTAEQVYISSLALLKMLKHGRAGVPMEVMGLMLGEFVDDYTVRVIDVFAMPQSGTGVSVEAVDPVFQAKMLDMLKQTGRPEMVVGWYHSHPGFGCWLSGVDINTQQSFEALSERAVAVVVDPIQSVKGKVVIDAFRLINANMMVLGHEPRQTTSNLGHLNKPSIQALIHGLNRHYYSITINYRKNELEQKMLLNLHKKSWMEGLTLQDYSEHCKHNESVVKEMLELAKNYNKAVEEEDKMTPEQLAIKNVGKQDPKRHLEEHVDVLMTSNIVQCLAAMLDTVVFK
Active and inactive are the calls of the source.
endpoint: IC50

Known value: 26S proteasome non-ATPase regulatory subunit 14 (Homo sapiens, UniProt O00487) IC50 of the compound Cn1c(=O)c2cc(S(=O)(=O)NC(C(=O)Nc3cccc(F)c3)c3ccccc3)ccc2n(C)c1=O (centres undefined) equals 92.8 µM (active)

Known value: 26S proteasome non-ATPase regulatory subunit 14 (Homo sapiens, UniProt O00487) IC50 of the compound CN1CCN(C(c2ccc(Cl)cc2)c2cc(Cl)c3cccnc3c2O)CC1 (centres undefined) equals 56.4 µM (active)

Known value: 26S proteasome non-ATPase regulatory subunit 14 (Homo sapiens, UniProt O00487) IC50 of the compound O=C(N/N=C/c1cc(Br)cc(Cl)c1O)c1ccc2c(c1)OCO2 equals 15.5 µM (active)

Known value: 26S proteasome non-ATPase regulatory subunit 14 (Homo sapiens, UniProt O00487) IC50 of the compound Cc1cc(O)nc(NN/C=C2/C(=O)N(c3ccccc3)C(=O)c3ccccc32)n1 equals 18.4 µM (active)

====

assay: cells; format: functional
Activity calls are given as the source filed them.
endpoint: IC50

Item: CCC(C)n1nnc2c(=O)oc3ccccc3c21 (stereo not given) | IC50: 5.77 µM (active)

Item: CCOc1ccc(Nc2ccc([N+](=O)[O-])c3nonc23)cc1 | IC50: 5.59 µM (active)

Item: Oc1ccccc1/C=N/Nc1nc2ccccc2o1 | IC50: 33.3 µM (active)

Item: Cc1ccc(/C=C2/C(=O)NC(=O)N(CCc3ccc(F)cc3)C2=O)s1 | IC50: 39.2 µM (active)

Item: Cc1ccc2nc(C)c3c(c2c1)COC3 | IC50: > 50 µM (active)

====

target: Metabotropic glutamate receptor 3 (Rattus norvegicus); experiment: mGlu3 NAM potency via calcium readout, dose response, mGlu3 NAM project, TREx293 cells, Galpha15, calcium flux (AID 651840)
Sequence (P31422 whole entry): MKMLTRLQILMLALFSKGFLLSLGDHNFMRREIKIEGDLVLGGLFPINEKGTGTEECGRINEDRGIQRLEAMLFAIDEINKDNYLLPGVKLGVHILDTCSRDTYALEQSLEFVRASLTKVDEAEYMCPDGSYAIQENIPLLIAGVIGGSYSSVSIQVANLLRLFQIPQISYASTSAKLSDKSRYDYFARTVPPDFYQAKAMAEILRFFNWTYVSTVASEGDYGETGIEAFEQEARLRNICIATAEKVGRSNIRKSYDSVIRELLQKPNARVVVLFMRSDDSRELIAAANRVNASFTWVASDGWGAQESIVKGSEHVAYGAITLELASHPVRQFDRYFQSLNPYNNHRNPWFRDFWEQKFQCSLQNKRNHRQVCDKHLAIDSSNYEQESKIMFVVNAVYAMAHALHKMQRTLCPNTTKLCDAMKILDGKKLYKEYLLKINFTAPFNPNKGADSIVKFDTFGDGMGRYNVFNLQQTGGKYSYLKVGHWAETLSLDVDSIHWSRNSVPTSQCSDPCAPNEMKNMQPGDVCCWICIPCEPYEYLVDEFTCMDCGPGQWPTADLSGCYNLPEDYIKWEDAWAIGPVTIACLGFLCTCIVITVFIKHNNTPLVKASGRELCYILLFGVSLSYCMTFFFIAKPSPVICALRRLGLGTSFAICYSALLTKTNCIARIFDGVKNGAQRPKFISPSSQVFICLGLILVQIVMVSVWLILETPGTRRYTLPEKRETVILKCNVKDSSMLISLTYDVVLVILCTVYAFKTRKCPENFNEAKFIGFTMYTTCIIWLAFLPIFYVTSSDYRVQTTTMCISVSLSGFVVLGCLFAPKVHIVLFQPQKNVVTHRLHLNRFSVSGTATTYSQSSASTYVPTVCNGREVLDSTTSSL
endpoint: IC50 (µM)
The reply should contain only the number, in µM.

Item: COc1ccc(C#Cc2ccc(C(=O)N3CCCC4(C3)OCCO4)cc2)cc1 | IC50: 7.17

====

Can you tell me AC50 for the items I'm about to list?
target: DNA repair protein RAD52 homolog (Homo sapiens); assay type: functional, biochemical
Sequence (P43351 whole entry): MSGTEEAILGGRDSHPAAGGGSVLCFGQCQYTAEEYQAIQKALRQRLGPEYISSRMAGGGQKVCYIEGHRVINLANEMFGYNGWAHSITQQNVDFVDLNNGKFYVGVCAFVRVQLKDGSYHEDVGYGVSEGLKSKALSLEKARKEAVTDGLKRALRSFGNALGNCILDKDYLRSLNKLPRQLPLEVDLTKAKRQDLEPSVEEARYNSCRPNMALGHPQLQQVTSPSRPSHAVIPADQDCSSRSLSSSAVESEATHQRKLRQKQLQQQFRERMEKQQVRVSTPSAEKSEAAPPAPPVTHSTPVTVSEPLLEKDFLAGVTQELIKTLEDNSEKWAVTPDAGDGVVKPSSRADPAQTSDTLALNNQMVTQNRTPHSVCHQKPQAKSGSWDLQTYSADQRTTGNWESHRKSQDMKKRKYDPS
Structures can show the parent of a compound that is named as a salt. Calls of active or inactive are those of the source.

Item: CCN1CCN(c2cc(C)c3cc(NC(S)=NCCCN4CCc5ccccc5C4)ccc3n2)CC1 | AC50: 3 µM (active)

Item: CSc1ccc2c(c1)N(CCC1CCCCN1C)c1ccccc1S2 (centres undefined) [THIORIDAZINE HYDROCHLORIDE] | AC50: 13.7 µM (active)

Item: Cc1cc(N2CCC(N(C)C3CCCC3)CC2)nc2cc(O)ccc12 | AC50: 11.3 µM (active)

Item: Nc1ccc(CC(N)c2csc(Nc3ncccn3)n2)cc1 (centres undefined) | AC50: 19.2 µM (active)

Item: CCOC(=O)c1cnc2c(ccc3ccccc32)c1NCCCN(C)C | AC50: 1.38 µM (active)

Item: COc1cc2c(cc1OC)CN(c1nc(CN3CCCC3)nc3sc(C)c(C)c13)CC2 | AC50: 11.5 µM (active)

Item: CC1(C)N=C(N)N=C(N)N1c1ccc(CCCCc2ccccc2)cc1 | AC50: 11.2 µM (active)

Item: Cc1c(CCOC(=O)c2ccc(Cl)cc2Cl)sc[n+]1CC(=O)c1ccc(Br)cc1 | AC50: 13 µM (active)

Item: COc1ccc(OC)c(Nc2nc(NCCCN(C)C)nc(N)c2[N+](=O)[O-])c1 | AC50: 7.02 µM (active)
